Where do these numbers come from? They come from paper PMC8045006.

Target: BuChE (E.C.3.1.1.8, from equine serum) (Equus caballus, UniProt P81908)
Construct: BuChE (E.C.3.1.1.8, from equine serum); purchased Sigma-Aldrich (Steinheim, Germany); host or cells: equine serum
Sequence (P81908 whole entry): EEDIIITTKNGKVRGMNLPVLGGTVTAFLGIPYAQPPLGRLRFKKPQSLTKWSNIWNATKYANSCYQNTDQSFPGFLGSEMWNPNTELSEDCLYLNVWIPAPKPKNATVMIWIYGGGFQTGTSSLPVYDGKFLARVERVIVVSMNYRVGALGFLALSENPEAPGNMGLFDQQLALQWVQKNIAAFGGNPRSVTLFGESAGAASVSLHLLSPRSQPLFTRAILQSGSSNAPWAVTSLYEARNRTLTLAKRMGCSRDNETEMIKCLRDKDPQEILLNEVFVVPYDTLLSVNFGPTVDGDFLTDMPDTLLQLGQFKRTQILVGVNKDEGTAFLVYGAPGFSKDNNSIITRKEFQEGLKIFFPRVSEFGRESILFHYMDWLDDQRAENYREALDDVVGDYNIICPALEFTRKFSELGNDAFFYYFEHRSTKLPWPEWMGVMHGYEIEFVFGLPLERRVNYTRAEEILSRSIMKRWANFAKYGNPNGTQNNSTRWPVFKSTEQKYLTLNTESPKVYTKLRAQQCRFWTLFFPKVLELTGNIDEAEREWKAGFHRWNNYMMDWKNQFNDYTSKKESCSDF
Assay: biochemical
Assay type: biochemical
Details: read-out: BuChE Inhibition [IC50 (μM)]
Protocol: Fluka provided potassium hydroxide, sodium hydrogen carbonate, potassium dihydrogen phosphate, and dipotassium hydrogen phosphate. Sigma-Aldrich (Steinheim, Germany) provided BuChE (E.C.3.1.1.8, from equine serum), Electrical ([…]) AChE (type VI-S), acetylthiocholine iodide, 5,5⸍-dithiobis [2-nitrobenzoic acid] In order to set the derivatives’ stock solutions, they were dissolved in the dimethyl sulfoxide (DMSO). […]
VALUE_KIND: IC50 (µM)
Dear colleague, please return just the value in µM, with no unit written.

Problem: Output measured IC50 for this item: O=c1c2ccccc2ncn1Cc1ccc[n+](Cc2ccc(F)cc2)c1
Result: 70.4

----------
Target: BuChE (E.C.3.1.1.8, from equine serum) (Equus caballus, UniProt P81908)
Construct: BuChE (E.C.3.1.1.8, from equine serum); purchased Sigma-Aldrich (Steinheim, Germany); host or cells: equine serum
Assay: biochemical
Format: biochemical
VALUE_KIND: IC50 (µM)
Dear colleague, please return just the value in µM, with no unit written.

Problem: Output measured IC50 for this item: O=c1c2ccccc2ncn1Cc1ccc[n+](Cc2cccc(Br)c2)c1
Result: 6.76

----------
Molecular target: Electrical (Torpedo californica) AChE (type VI-S) (Electrophorus electricus)
Construct: purchased Sigma-Aldrich (Steinheim, Germany) type VI-S
Experiment: biochemical
Format: biochemical
VALUE_KIND: pIC50
Bear in mind: pIC50 is minus log10 of a mol/L concentration; give just that figure.

Problem: Output measured pIC50 for this item: COc1cc2ncn(Cc3ccc[n+](Cc4ccc(Cl)cc4)c3)c(=O)c2cc1OC.[Cl-]
Result: 5.95

----------
Target: BuChE (E.C.3.1.1.8, from equine serum) (Equus caballus)
Construct: BuChE (E.C.3.1.1.8, from equine serum); purchased Sigma-Aldrich (Steinheim, Germany); host or cells: equine serum
Test: biochemical
Type: biochemical
Conditions: Ellman's method, average ±SD, triplicate; read-out: BuChE Inhibition [IC50 (μM)]
VALUE_KIND: IC50 (µM)
Dear colleague, please return just the value in µM, with no unit written.

Problem: Output measured IC50 for this item: O=c1c2ccccc2ncn1Cc1ccc[n+](Cc2ccc(Cl)cc2)c1
Result: 29

Problem: Output measured IC50 for this item: COc1cc2ncn(Cc3ccc[n+](Cc4cccc(Br)c4)c3)c(=O)c2cc1OC
Result: 8.77

Problem: Output measured IC50 for this item: COc1cc2ncn(Cc3ccc[n+](Cc4ccccc4)c3)c(=O)c2cc1OC
Result: 18.8

Problem: Output measured IC50 for this item: O=c1c2ccccc2ncn1Cc1ccc[n+](Cc2ccccc2)c1
Result: 12.6

----------
Molecular target: Electrical (Torpedo californica) AChE (type VI-S) (Electrophorus electricus, UniProt O42275)
Construct: purchased Sigma-Aldrich (Steinheim, Germany) type VI-S
Sequence (O42275 24-633): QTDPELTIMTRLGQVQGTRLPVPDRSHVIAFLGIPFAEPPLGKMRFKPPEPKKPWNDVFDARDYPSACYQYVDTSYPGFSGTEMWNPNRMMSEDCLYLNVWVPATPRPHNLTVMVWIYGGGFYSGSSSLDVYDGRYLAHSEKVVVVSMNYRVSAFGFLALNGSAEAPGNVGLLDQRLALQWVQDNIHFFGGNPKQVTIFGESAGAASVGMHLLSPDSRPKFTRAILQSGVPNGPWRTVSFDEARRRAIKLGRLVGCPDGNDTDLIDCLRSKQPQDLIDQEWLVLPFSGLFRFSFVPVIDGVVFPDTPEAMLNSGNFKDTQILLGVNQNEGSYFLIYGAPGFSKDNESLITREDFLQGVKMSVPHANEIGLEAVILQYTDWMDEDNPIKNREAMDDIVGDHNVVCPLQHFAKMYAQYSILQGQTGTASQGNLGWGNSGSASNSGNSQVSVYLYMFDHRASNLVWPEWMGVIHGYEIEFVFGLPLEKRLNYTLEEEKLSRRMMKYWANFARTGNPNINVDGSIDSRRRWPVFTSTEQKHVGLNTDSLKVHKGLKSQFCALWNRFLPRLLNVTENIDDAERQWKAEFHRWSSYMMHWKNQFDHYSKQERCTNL
Assay: biochemical
Type: biochemical
Conditions: Ellman's method, average ±SD, triplicate; read-out: AChE Inhibition [IC50 (μM)]
Provide the reported IC50 of each item.
Dear colleague, please return just the value in µM, with no unit written.

Problem: Output measured IC50 for this item: COc1cc2ncn(Cc3ccc[n+](Cc4cccc(Br)c4)c3)c(=O)c2cc1OC
Result: 6.77

Problem: Output measured IC50 for this item: O=c1c2ccccc2ncn1Cc1ccc[n+](Cc2cccc(Br)c2)c1
Result: 5.9

Problem: Output measured IC50 for this item: O=c1c2ccccc2ncn1Cc1ccc[n+](Cc2ccccc2)c1
Result: 41.2

Problem: Output measured IC50 for this item: O=c1c2ccccc2ncn1Cc1ccc[n+](Cc2ccc(Cl)cc2)c1
Result: 47.1

Problem: Output measured IC50 for this item: COc1cc2ncn(Cc3ccc[n+](Cc4ccccc4)c3)c(=O)c2cc1OC
Result: 10.1
